biological target: biotinylated human plasma Kallikrein (Homo sapiens, UniProt P03952); assay: Phage binding assay of individual clones, randomisation of peptide domains; conditions: WPAR domain fixed, positions 1, 6, 7, 8, 9 & 10 randomised; top 50
Sequence (P03952 20-638): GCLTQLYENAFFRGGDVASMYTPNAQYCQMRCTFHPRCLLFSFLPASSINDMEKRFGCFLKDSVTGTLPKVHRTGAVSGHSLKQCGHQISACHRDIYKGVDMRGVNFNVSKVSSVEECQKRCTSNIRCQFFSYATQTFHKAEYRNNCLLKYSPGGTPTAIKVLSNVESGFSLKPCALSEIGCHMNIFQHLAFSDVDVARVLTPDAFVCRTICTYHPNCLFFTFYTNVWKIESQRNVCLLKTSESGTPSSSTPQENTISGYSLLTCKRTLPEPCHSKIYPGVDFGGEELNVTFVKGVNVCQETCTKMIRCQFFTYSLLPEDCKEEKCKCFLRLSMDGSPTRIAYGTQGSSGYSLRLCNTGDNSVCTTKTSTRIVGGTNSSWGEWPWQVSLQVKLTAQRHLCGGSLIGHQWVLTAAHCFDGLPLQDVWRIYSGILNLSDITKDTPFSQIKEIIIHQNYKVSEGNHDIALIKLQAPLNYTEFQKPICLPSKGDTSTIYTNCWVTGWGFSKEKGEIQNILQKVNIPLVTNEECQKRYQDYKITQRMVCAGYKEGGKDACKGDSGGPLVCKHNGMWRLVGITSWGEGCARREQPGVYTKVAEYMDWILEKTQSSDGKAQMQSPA
Using Rank (sequences ranked according to Kallikrein binding) as the sorting value, the categories are bottom range: < 20; center range: ≥ 20 and < 40; top range: ≥ 40

Below, 6 substances whose answers are already recorded.
>>> qualitative_label("SEQ ID NO: 118 (CSWPARCTHADLC; Synthetic sequence Kallikrein binder containing a WPAR motif)")
"bottom range"
>>> qualitative_label("SEQ ID NO: 149 (CAWPARCTHTHLC; Synthetic sequence Kallikrein binder containing a WPAR motif)")
"center range"
>>> qualitative_label("SEQ ID NO: 140 (CHWPARCMHQDLC; Synthetic sequence Kallikrein binder containing a WPAR motif)")
"center range"
>>> qualitative_label("SEQ ID NO: 158 (CSWPARCTHAEMC; Synthetic sequence Kallikrein binder containing a WPAR motif)")
"top range"
>>> qualitative_label("SEQ ID NO: 122 (CLWPARCTHQDLC; Synthetic sequence Kallikrein binder containing a WPAR motif)")
"bottom range"
>>> qualitative_label("SEQ ID NO: 155 (CSWPARCVHQDMC; Synthetic sequence Kallikrein binder containing a WPAR motif)")
"top range"

Input line: Looking at SEQ ID NO: 136 (CTWPARCLHQDLC; Synthetic sequence Kallikrein binder containing a WPAR motif) , which class would you pick?
Output line: center range

Input line: Could you place SEQ ID NO: 141 (CPWPARCTHTDLC; Synthetic sequence Kallikrein binder containing a WPAR motif) in its proper category? Many thanks.
Output line: center range

Input line: The entry to classify is SEQ ID NO: 129 (CMWPARCMHQDLC; Synthetic sequence Kallikrein binder containing a WPAR motif) ; which class holds it?
Output line: bottom range

Input line: GET /class?item= SEQ ID NO: 124 (CHWPARCTHQELC; Synthetic sequence Kallikrein binder containing a WPAR motif)
Output line: bottom range

###

This listing pairs substances with measured Frequency (relative abundance in the total selection outputs).
Biological target: Biotinylated hPK (Homo sapiens, UniProt P03952)
Construct: IHPKA, from human plasma; purchased Innovative Research, Novi, MI, USA IHPKA; host or cells: human plasma
Sequence (P03952 20-638): as above
Assay: Phage selections, abundance of sequences in selection outputs
Assay type: binding
Conditions: randomised WPAR motif at positions 2, 3, 4 & 5 within the 06-34-03 sequence
Procedure: Glycerol stocks of phage libraries were diluted to OD600=0.1 in 500 ml 2YT/chloramphenicol (30 μg/ml) cultures and phage were produced at 30° C. over night (15-16 hrs). […] The WPAR (SEQ ID NO: 18) motif identified from Example 1 was analysed in the context of the 06-34-03 peptide, in order to identify alternatives or improvements to the WPAR (SEQ ID NO: 18) motif. […]
Respond using a number only.

Example results:
>>> obs_value("SEQ ID NO: 102 (CSLPIRCTHQDLC; Synthetic sequence Kallikrein binder identified from selections using a randomised WPAR motif at positions 2, 3, 4 & 5 within the 06-34-03 sequence of PCT/EP2012/069898 (SEQ ID NO 58))")
1
>>> obs_value("SEQ ID NO: 77 (CSFPYRCTHQDLC; Synthetic sequence Kallikrein binder identified from selections using a randomised WPAR motif at positions 2, 3, 4 & 5 within the 06-34-03 sequence of PCT/EP2012/069898 (SEQ ID NO 58))")
12

Shifting focus to the substance that follows.
Input line: Please tell me: Frequency (relative abundance in the total selection outputs) of SEQ ID NO: 100 (CSWPYKCTHQDLC; Synthetic sequence Kallikrein binder identified from selections using a randomised WPAR motif at positions 2, 3, 4 & 5 within the 06-34-03 sequence of PCT/EP2012/069898 (SEQ ID NO 58)) , system Biotinylated hPK (Homo sapiens, UniProt P03952)?
Output line: 1

###

assay: Plasma stability profiling method 1 (35% plasma, MALDI-TOF, qualitative); format: in vitro ADME, rat; settings: 35% rat plasma, 37 deg C, method 1, comparative estimate
Numbered stars: 1 amine (or outer) side, 2 acyl side, 3 side chain; on linkers, the order of the positions; unused ones are H or OH. Bridge positions count the residues as written; N and C are the ends. Peptide text beside a SMILES is read from it. TBMB = c1c(C[*:1])cc(C[*:3])cc1C[*:2]
MEASURE: Observable in rat plasma, for days (days)
A number alone suffices; assume days.

Input line: Look at this compound and give its reported Observable in rat plasma, for days. CC(=O)N[C@H]1CSCc2cc3cc(c2)CSC[C@H](NC(=O)[C@H](CCCNC(=N)N)NC(=O)[C@H](C)NC(=O)[C@@H]2CCCN2C(=O)[C@H](Cc2ccccc2)NC(=O)[C@H](CO)NC1=O)C(=O)N[C@@H](CC(C)C)C(=O)N[C@@H](Cc1c[nH]cn1)C(=O)N[C@@H](CCC(N)=O)C(=O)N[C@@H](CC(=O)O)C(=O)N[C@@H](CC(C)C)C(=O)N[C@H](C(N)=O)CSC3 [Ac-(06-34-18) FPAR] (Ac-CSFPARCLHQDLC-NH2; linker 1-7-13 via TBMB)
Output line: 2

###

target: Biotinylated hPK (Homo sapiens); construct: IHPKA, from human plasma; purchased Innovative Research, Novi, MI, USA IHPKA; host or cells: human plasma; assay: Phage selections, abundance of sequences in selection outputs; type: binding; details: randomised WPAR motif at positions 2, 3, 4 & 5 within the 06-34-03 sequence
Frequency (relative abundance in the total selection outputs): recorded values
When you answer, write just the number.

>>> obs_value("SEQ ID NO: 82 (CSWPYRCTHQDLC; Synthetic sequence Kallikrein binder identified from selections using a randomised WPAR motif at positions 2, 3, 4 & 5 within the 06-34-03 sequence of PCT/EP2012/069898 (SEQ ID NO 58))")
3
>>> obs_value("SEQ ID NO: 106 (CSFPFWCTHQDLC; Synthetic sequence Kallikrein binder identified from selections using a randomised WPAR motif at positions 2, 3, 4 & 5 within the 06-34-03 sequence of PCT/EP2012/069898 (SEQ ID NO 58))")
1

Could you now look at the following substance, please?
Input line: Query (substance): SEQ ID NO: 112 (CSLFDHCTHQDLC; Synthetic sequence Kallikrein binder identified from selections using a randomised WPAR motif at positions 2, 3, 4 & 5 within the 06-34-03 sequence of PCT/EP2012/069898 (SEQ ID NO 58)) ; field requested: Frequency (relative abundance in the total selection outputs)
Output line: 1

###

molecular target: Biotinylated hPK (Homo sapiens, UniProt P03952); construct: IHPKA, from human plasma; purchased Innovative Research, Novi, MI, USA IHPKA; host or cells: human plasma; assay: Phage selections, abundance of sequences in selection outputs; format: binding; conditions: randomised WPAR motif at positions 2, 3, 4 & 5 within the 06-34-03 sequence
MEASURE: Frequency (relative abundance in the total selection outputs)
The reply should be a number, written without any unit.

Below are worked cases with known answers.
>>> obs_value("SEQ ID NO: 85 (CSLPFRCTHQDLC; Synthetic sequence Kallikrein binder identified from selections using a randomised WPAR motif at positions 2, 3, 4 & 5 within the 06-34-03 sequence of PCT/EP2012/069898 (SEQ ID NO 58))")
3
>>> obs_value("SEQ ID NO: 90 (CSYPIRCTHQDLC; Synthetic sequence Kallikrein binder identified from selections using a randomised WPAR motif at positions 2, 3, 4 & 5 within the 06-34-03 sequence of PCT/EP2012/069898 (SEQ ID NO 58))")
2
>>> obs_value("SEQ ID NO: 92 (CSLPFKCTHQDLC; Synthetic sequence Kallikrein binder identified from selections using a randomised WPAR motif at positions 2, 3, 4 & 5 within the 06-34-03 sequence of PCT/EP2012/069898 (SEQ ID NO 58))")
1
>>> obs_value("SEQ ID NO: 80 (CSHPYRCTHQDLC; Synthetic sequence Kallikrein binder identified from selections using a randomised WPAR motif at positions 2, 3, 4 & 5 within the 06-34-03 sequence of PCT/EP2012/069898 (SEQ ID NO 58))")
2

Input line: // returns reported Frequency (relative abundance in the total selection outputs) for input SEQ ID NO: 81 (CSHPFRCTHQDLC; Synthetic sequence Kallikrein binder identified from selections using a randomised WPAR motif at positions 2, 3, 4 & 5 within the 06-34-03 sequence of PCT/EP2012/069898 (SEQ ID NO 58))
Output line: 1

Input line: Returns the measured Frequency (relative abundance in the total selection outputs) for the input substance. Input: SEQ ID NO: 89 (CSLPFRCTHQDLC; Synthetic sequence Kallikrein binder identified from selections using a randomised WPAR motif at positions 2, 3, 4 & 5 within the 06-34-03 sequence of PCT/EP2012/069898 (SEQ ID NO 58))
Output line: 4
